These entries and their values trace back to paper PMC3062473.

Recorded pIC50, one value per entry.
Target: Caspase 6 (Homo sapiens, UniProt P55212)
Sequence (P55212 24-179 limits assumed): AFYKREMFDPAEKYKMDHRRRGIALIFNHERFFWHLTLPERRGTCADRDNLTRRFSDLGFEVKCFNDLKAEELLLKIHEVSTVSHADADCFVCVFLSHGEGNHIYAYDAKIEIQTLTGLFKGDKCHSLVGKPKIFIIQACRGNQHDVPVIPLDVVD
Sequence (P55212 194-293 limits assumed): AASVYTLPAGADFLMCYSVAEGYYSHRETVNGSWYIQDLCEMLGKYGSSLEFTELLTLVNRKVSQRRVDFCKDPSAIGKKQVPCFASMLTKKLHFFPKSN
Test: Reaction Biology caspase panel
Assay type: biochemical
pIC50: −log10 of the molar value.

Examples with their reported pIC50 follow.
CC(C)(C)[C@H](NC(=O)c1ccc(N)c(Cl)c1)C(=O)N1CCC[C@H]1C(=O)N[C@H](C#N)Cc1nnn[nH]1 | < 5.00
CC(C)(C)[C@H](NC(=O)c1ccc(N)c(Cl)c1)C(=O)N1CCC[C@H]1C(=O)N[C@H](C#N)CC(=O)O | < 5.00
CC(=O)N[C@@H](CC(=O)O)C(=O)N[C@@H](CCC(=O)O)C(=O)N[C@H](C(=O)N[C@H](C=O)CC(=O)O)C(C)C [Ac-DEVD-CHO, reference compound] | 6.91

In the following, a different compound is considered.
Task: Which pIC50 is listed for CCOC(=O)C[C@@H](C#N)NC(=O)[C@@H]1CCCN1C(=O)[C@@H](NC(=O)c1ccc(N)c(Cl)c1)C(C)(C)C ?
Result: < 5.00

---

Biological target: UniProtKB P31944
Sequence (P31944 6-146 limits assumed): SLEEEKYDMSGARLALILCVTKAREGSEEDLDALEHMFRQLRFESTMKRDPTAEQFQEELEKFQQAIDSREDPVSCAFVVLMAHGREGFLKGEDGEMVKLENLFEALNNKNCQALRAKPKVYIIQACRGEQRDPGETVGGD
Sequence (P31944 153-242 limits assumed): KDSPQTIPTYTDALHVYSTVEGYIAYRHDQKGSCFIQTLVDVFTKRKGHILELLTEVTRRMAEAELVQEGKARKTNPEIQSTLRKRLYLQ
Test: Reaction Biology caspase panel
Assay type: biochemical
Settings: read-out: Caspase 14 IC50; (Z-LEHD)2-R110 substrate; three separate experiments
MEASURED ENDPOINT: pIC50
pIC50 (log units): -log10 of the concentration in mol/L.

Task: Which pIC50 is listed for CC(C)(C)[C@H](NC(=O)c1ccc(N)c(Cl)c1)C(=O)N1CCC[C@H]1C(=O)N[C@H](C=O)CC(=O)O [Compound 2b, reference compound] ?
Result: 7.23

---

Recorded IC50, one value per entry.
Biological target: Caspase 4 (Homo sapiens)
Sequence (P49662 81-270 limits assumed): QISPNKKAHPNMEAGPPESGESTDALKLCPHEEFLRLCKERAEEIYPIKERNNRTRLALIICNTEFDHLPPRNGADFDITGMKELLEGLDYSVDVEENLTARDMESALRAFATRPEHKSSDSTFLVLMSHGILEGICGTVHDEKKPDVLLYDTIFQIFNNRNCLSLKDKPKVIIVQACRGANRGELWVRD
Sequence (P49662 290-377 limits assumed): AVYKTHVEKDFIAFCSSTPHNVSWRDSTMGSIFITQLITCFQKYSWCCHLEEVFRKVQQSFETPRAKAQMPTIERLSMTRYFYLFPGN
Assay: Reaction Biology caspase panel
Format: biochemical
// units = µM; emit number, no label

CC(C)(C)[C@H](NC(=O)c1ccc(N)c(Cl)c1)C(=O)N1CCC[C@H]1C(=O)N[C@H](C#N)CC(=O)O | 0.0138

In the following, a different compound is considered.
Task: Which IC50 is listed for CC(C)(C)[C@H](NC(=O)c1ccc(N)c(Cl)c1)C(=O)N1CCC[C@H]1C(=O)N[C@H](C#N)Cc1nnn[nH]1 ?
Result: 1.38

---

Test: Plasma protein binding, equilibrium dialysis in 100% plasma
Format: in vitro ADME, human
Conditions: human, plasma (100%)
MEASURED ENDPOINT: fraction unbound

Examples with their reported fraction unbound follow.
CCOC(=O)C[C@@H](C#N)NC(=O)[C@@H]1CCCN1C(=O)[C@@H](NC(=O)c1ccc(N)c(Cl)c1)C(C)(C)C [Compound 3] | 0.071
CC(C)(C)[C@H](NC(=O)c1ccc(N)c(Cl)c1)C(=O)N1CCC[C@H]1C(=O)N[C@H](C#N)CC(=O)O [Compound 4] | 0.431
CC(C)(C)[C@H](NC(=O)c1ccc(N)c(Cl)c1)C(=O)N1CCC[C@H]1C(=O)N[C@H](C#N)Cc1nnn[nH]1 [Compound 16] | 0.243

In the following, a different compound is considered.
Task: Which fraction unbound is listed for CCO[C@@H]1OC(=O)C[C@@H]1NC(=O)[C@@H]1CCCN1C(=O)[C@@H](NC(=O)c1ccc(N)c(Cl)c1)C(C)(C)C [Compound 1, reference compound] ?
Result: 0.006
